All figures here come from ChEMBL document CHEMBL5260820.

Assay: Tmax in Wistar rat at 3 mg/kg, po or iv measured upto 5 hrs by HPLC-MS/MS analysis
Format: ADME, organism-based
Conditions: in vivo
reportedProperty: Tmax (h)

{"compound": "C[C@]12CC[C@@H]3c4ccc(OCc5ccccn5)cc4CC[C@H]3[C@@H]1CC[C@@H]2N1CCCC1", "recordedMeasurement": 1}

---

Ki values by entry
Molecular target: Histamine H3 receptor (Homo sapiens)
Sequence (Q9Y5N1 whole entry): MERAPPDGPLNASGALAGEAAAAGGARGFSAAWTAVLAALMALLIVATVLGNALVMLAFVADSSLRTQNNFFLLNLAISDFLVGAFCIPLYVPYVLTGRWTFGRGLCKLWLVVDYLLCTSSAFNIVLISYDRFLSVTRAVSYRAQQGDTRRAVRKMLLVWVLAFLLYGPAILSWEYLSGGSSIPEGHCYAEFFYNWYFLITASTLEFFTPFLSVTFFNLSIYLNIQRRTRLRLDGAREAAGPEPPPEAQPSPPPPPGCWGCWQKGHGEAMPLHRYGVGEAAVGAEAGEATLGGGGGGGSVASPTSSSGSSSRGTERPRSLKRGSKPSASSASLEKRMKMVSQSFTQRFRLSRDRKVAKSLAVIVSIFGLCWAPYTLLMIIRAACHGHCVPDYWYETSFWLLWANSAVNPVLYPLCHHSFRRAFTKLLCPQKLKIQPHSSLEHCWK
Test: Displacement of N-alpha-[methyl-3H]-methylhistamine dihydrochloride from recombinant human histamine H3 receptor expressed in CHO-K1 cells assessed as inhibition constant incubated for 30 mins by liquid scintillation analysis
reportedProperty: Ki (nM)

{"compound": "C[C@]12CC[C@H]3[C@@H](CC=C4C[C@@H](OCCCN5CCCC5)CC[C@@]43C)[C@@H]1CC[C@@H]2N1CCCC1", "unitAnnotation": "nM", "recordedMeasurement": 4.3}
{"compound": "C[C@]12CC[C@@H]3c4ccc(OCCCN5CCNC(=O)C5)cc4CC[C@H]3[C@@H]1CC[C@@H]2N1CCCC1", "unitAnnotation": "nM", "recordedMeasurement": 0.6}
{"compound": "C[C@]12CC[C@@H]3c4ccc(OCCCN5CCC(O)CC5)cc4CC[C@H]3[C@@H]1CC[C@@H]2N1CCCC1", "unitAnnotation": "nM", "recordedMeasurement": 5}
{"compound": "C[C@]12CC[C@@H]3c4ccc(OCCN5CCCC5)cc4CC[C@H]3[C@@H]1CC[C@@H]2N1CCCC1", "unitAnnotation": "nM", "recordedMeasurement": 1.9}
{"compound": "C[C@@H]1Cc2cc(OCCCN3CCCC3)ccc2[C@H]2CC[C@]3(C)[C@@H](N4CCCC4)CC[C@H]3[C@H]12", "unitAnnotation": "nM", "recordedMeasurement": 1.2}
{"compound": "CN1CCC[C@H]2[C@@H]3CC[C@H]4C[C@@H](OC(=O)CCN5CCCC5)CC[C@]4(C)[C@H]3CC[C@@]21C", "unitAnnotation": "nM", "recordedMeasurement": 10}
